experiment: Solubility of the compound; assay type: physicochemical
QUANTITY: solubility (mg/mL)
Give your result in mg/mL as a bare value.

CCn1nc(C)cc1C(=O)/N=c1\[nH]c2cc(-c3ncn[nH]3)cc(OC)c2n1C/C=C/Cn1/c(=N/C(=O)c2cc(C)nn2CC)[nH]c2cc(C(N)=O)cc(OCCCN3CCOCC3)c21.Cl.Cl.Cl = 71.3

The record that follows has no solubility shown yet.
Q) Annotate the compound CCn1nc(C)cc1C(=O)/N=c1\[nH]c2cc(C(N)=O)cc(OC)c2n1C/C=C/Cn1/c(=N/C(=O)c2cc(C)nn2CC)[nH]c2cc(C(N)=O)cc(OCCCN3CCOCC3)c21.Cl.Cl.Cl with its measured solubility.
A) 3.23

----------
assay: Observed clearance in rat at 1 mg/kg, iv; type: ADME, organism-based; settings: in vivo
Let's look at some molecules and their measured clearance.
Use mL/min/kg as the unit, but write only the number.

CCn1nc(C)cc1C(=O)/N=c1\[nH]c2cc(-c3ncn[nH]3)cc(OC)c2n1C/C=C/Cn1/c(=N/C(=O)c2cc(C)nn2CC)[nH]c2cc(C(N)=O)cc(OCCCN3CCOCC3)c21 = 23.9

Q) Identify the reported clearance for the following entry. CCn1nc(C)cc1C(=O)Nc1nc2cc(C(N)=O)cc(OC)c2n1C/C=C/Cn1c(NC(=O)c2cc(C)nn2CC)nc2cc(C(N)=O)cc(OCCCN3CCOCC3)c21
A) 26

----------
assay: Observed AUCinfinity in rat at 1 mg/kg, iv; format: ADME, organism-based; set-up: time infinity, route intravenous, dose 1 mg/kg; conditions: in vivo
QUANTITY: AUC(0-inf)
The reply should read as a number followed by its unit.

CCn1nc(C)cc1C(=O)Nc1nc2cc(C(N)=O)cc(OC)c2n1C/C=C/Cn1c(NC(=O)c2cc(C)nn2CC)nc2cc(C(N)=O)cc(OCCCN3CCOCC3)c21 = 666 ng·h/mL

--- query ---
Q) Quote AUC(0-inf) reported for CCn1nc(C)cc1C(=O)/N=c1\[nH]c2cc(-c3ncn[nH]3)cc(OC)c2n1C/C=C/Cn1/c(=N/C(=O)c2cc(C)nn2CC)[nH]c2cc(C(N)=O)cc(OCCCN3CCOCC3)c21 please.
A) 705 ng·h/mL

----------
target: Stimulator of interferon genes protein (Mus musculus) (UniProt Q3TBT3); experiment: Activation of mouse STING expressed in RAW-Lucia ISG cells at 50 uM incubated for 24 hrs by QUANTI-Luc luciferase reporter gene assay relative to control; details: filed as activator
Sequence (Q3TBT3 whole entry): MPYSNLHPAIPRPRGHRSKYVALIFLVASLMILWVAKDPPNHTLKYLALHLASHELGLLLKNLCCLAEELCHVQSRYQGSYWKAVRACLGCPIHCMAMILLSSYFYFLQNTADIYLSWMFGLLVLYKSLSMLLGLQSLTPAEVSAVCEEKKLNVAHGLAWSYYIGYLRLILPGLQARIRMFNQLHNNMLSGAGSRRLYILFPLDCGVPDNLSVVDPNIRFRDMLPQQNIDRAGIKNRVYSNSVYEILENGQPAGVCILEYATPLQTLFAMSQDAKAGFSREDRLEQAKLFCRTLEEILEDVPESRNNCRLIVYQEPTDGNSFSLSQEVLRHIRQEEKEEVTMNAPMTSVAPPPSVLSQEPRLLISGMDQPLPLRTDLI
# fold change (FC) listing for each entry below
Give the figure only, with no unit attached.

Worked set:
CCn1nc(C)cc1C(=O)/N=c1\[nH]c2cc(-c3ncc[nH]3)cc(OC)c2n1C/C=C/Cn1/c(=N/C(=O)c2cc(C)nn2CC)[nH]c2cc(-c3ncc[nH]3)cc(OCCCN3CCOCC3)c21 = 1.21
CCn1nc(C)cc1C(=O)/N=c1\[nH]c2cc(C3=NCCO3)cc(OC)c2n1C/C=C/Cn1/c(=N/C(=O)c2cc(C)nn2CC)[nH]c2cc(C(N)=O)cc(OCCCN3CCOCC3)c21 = 0.99
CCn1nc(C)cc1C(=O)/N=c1\[nH]c2cc(-c3ncn[nH]3)cc(OC)c2n1C/C=C/Cn1/c(=N/C(=O)c2cc(C)nn2CC)[nH]c2cc(C(N)=O)cc(OCCCN3CCOCC3)c21 = 3.2
COC(=O)CCC(=O)c1nc2cc(C(N)=O)cc(OC)c2n1C/C=C/Cn1c(C(=O)CCC(=O)OC)nc2cc(C(N)=O)cc(OCCCN3CCOCC3)c21 = 1.01
CCn1nc(C)cc1C(=O)/N=c1\[nH]c2cc(-c3ncc[nH]3)cc(OC)c2n1C/C=C/Cn1/c(=N/C(=O)c2cc(C)nn2CC)[nH]c2cc(C(N)=O)cc(OCCCN3CCOCC3)c21 = 1.42

Q) Item CCn1nc(C)cc1C(=O)/N=c1\[nH]c2cc(-c3ncn[nH]3)cc(OC)c2n1C/C=C/Cn1/c(=N/C(=O)c2cc(C)nn2CC)[nH]c2cc(-c3ncn[nH]3)cc(OCCCN3CCOCC3)c21 : provide fold change (FC)
A) 1.18
